# System: infecting bacteria of urine samples
# assay.comment: antibiotics disc inhibition zone, urine samples (standard analysis)
# Type: cell-based
# stated.conditions: urine sample 1, 30 ppm

>  <molecule>
Cc1nnc(SCC2=C(C(=O)O)N3C(=O)[C@@H](NC(=O)Cn4cnnn4)[C@H]3SC2)s1 [Cephamezin]

>  <scale.unit>
mm

>  <Antibiotics disc inhibition zone>
7

$$$$
>  <molecule>
O=C(N[C@H](CO)[C@H](O)c1ccc([N+](=O)[O-])cc1)C(Cl)Cl [Chloramphenicol]

>  <scale.unit>
mm

>  <Antibiotics disc inhibition zone>
5

$$$$
>  <molecule>
CO/N=C(\C(=O)N[C@@H]1C(=O)N2C(C(=O)O)=C(COC(N)=O)CS[C@H]12)c1ccco1 [Cefuroxime]

>  <scale.unit>
mm

>  <Antibiotics disc inhibition zone>
6

$$$$
>  <molecule>
NC[C@H]1O[C@H](O[C@H]2[C@H](O)[C@@H](O[C@H]3O[C@H](CO)[C@@H](O)[C@H](N)[C@H]3O)[C@H](N)C[C@@H]2N)[C@H](O)[C@@H](O)[C@@H]1O [Kanamicin, Kanamycin]

>  <scale.unit>
mm

>  <Antibiotics disc inhibition zone>
5

$$$$

###

# System: infecting bacteria of urine samples
# assay.comment: BLT antibiotic susceptibility of urine samples
# Type: cell-based
# Design: unit not given here
# stated.conditions: urine sample 2, 3% urine, 3 hrs 37 C, concentrations given in Table 5
BLT (luminescence) vs 0.9: at or above is T, below is F.

>  <compound>
Cc1onc(-c2ccccc2Cl)c1C(=O)N[C@@H]1C(=O)N2[C@@H]1SC(C)(C)[C@@H]2C(=O)[O-].[Na+] [Orbenil]

>  <assigned.category>
F

$$$$
>  <compound>
O=C(N[C@H](CO)[C@H](O)c1ccc([N+](=O)[O-])cc1)C(Cl)Cl [Chloramphenicol]

>  <assigned.category>
T

$$$$
>  <compound>
NC[C@H]1O[C@H](O[C@H]2[C@H](O)[C@@H](O[C@H]3O[C@H](CO)[C@@H](O)[C@H](N)[C@H]3O)[C@H](N)C[C@@H]2N)[C@H](O)[C@@H](O)[C@@H]1O [Kanamicin, Kanamycin]

>  <assigned.category>
T

$$$$
>  <compound>
CC1(C)S[C@@H]2[C@H](NC(=O)[C@H](N)c3ccccc3)C(=O)N2[C@H]1C(=O)O [Ampicillin]

>  <assigned.category>
F

$$$$
>  <compound>
CC1(C)S[C@@H]2[C@H](NC(=O)Cc3ccccc3)C(=O)N2[C@H]1C(=O)O [Penicillin G]

>  <assigned.category>
T

$$$$
>  <compound>
Cc1nnc(SCC2=C(C(=O)O)N3C(=O)[C@@H](NC(=O)Cn4cnnn4)[C@H]3SC2)s1 [Cephamezin]

>  <assigned.category>
T

$$$$
>  <compound>
CO/N=C(\C(=O)N[C@@H]1C(=O)N2C(C(=O)O)=C(COC(N)=O)CS[C@H]12)c1ccco1 [Cefuroxime]

>  <assigned.category>
T

$$$$
